# target-or-system: A31 (A*3101) (Homo sapiens, UniProt P04439, A270S/D185E/E176V/E277Q/F33T/G231S/G80R/H175R/I121M/I218V/I322F/K168Q/L300P/L318F/M331R/P217A/Q94H/R138Q/T323A/T345S/T97I/V358M)
# assay-remarks: biochemical
# Format: binding
pIC50: −log10 of the molar value. No end group written: not given here.
The following sequences are shown together with reported pIC50 values.

seq: NTMHYTNWK [Peptide 1589.16]
comparator: =
pIC50: 5.31

seq: RQLFLNTVK [Peptide 1589.44]
comparator: =
pIC50: 7.06

seq: MLIEPPKLR [Peptide 88.0366]
comparator: =
pIC50: 5.50

seq: RIGILRQRR [Peptide 9017.0113]
comparator: =
pIC50: 8.12

seq: SQACALYWFR [Peptide 88.0192]
comparator: =
pIC50: 7.38

seq: ATNKMFCQLAK [Peptide 1556.47]
comparator: =
pIC50: 6.80

seq: TTLEKLTNK [Peptide 78.0283]
comparator: =
pIC50: 6.22

seq: WTIVYIEYRK [Peptide 9017.0243]
comparator: =
pIC50: 5.87

seq: AAEGVGAASR [Peptide 9017.0187]
comparator: =
pIC50: 5.49

seq: VQVYFDGNK [Peptide 88.0399]
comparator: <
pIC50: 4.70

seq: NTMDYTNWK [Peptide 88.0425]
comparator: <
pIC50: 4.70

seq: ATLESITKK [Peptide 78.0300]
comparator: =
pIC50: 5.50

seq: CFFTRTWSR [Peptide 88.0382]
comparator: =
pIC50: 8.37

seq: VVPAYNISK [Peptide 88.0397]
comparator: <
pIC50: 4.70

###

The following molecules are shown together with reported IC50 values.
# target-or-system: DR4w4 (DRB1*0401) (Homo sapiens, UniProt P01903+P01911, A100K/A169T/F76Y/I96L/K127E/L162R/M171V/N62H/P40V/Q125Y/R42H/S133A/S149N/S66Y/V115G/V209L/W38E)
# assay-remarks: biochemical
# Assay type: binding
endpoint: IC50

molecule: CSCC[C@H](NC(=O)[C@H](CC(=O)O)NC(=O)[C@H](Cc1ccc(O)cc1)NC(=O)[C@H](CC(C)C)NC(=O)[C@@H]1CCCN1C(=O)[C@H](Cc1c[nH]cn1)NC(=O)[C@@H]1CCCN1)C(=O)N[C@@H](CO)C(=O)N[C@@H](CC(C)C)C(=O)N[C@@H](CC(C)C)C(=O)N[C@@H](CCCCN)C(=O)N[C@@H](CC(N)=O)C(=O)N[C@@H](CCCNC(=N)N)C(=O)N[C@@H](Cc1ccccc1)C(=O)N[C@@H](CC(C)C)C(=O)O [Peptide 68.0071]
value-observed: > 20 µM

molecule: CC[C@H](C)[C@H](NC(=O)[C@H](C)NC(=O)[C@@H](NC(=O)[C@@H](NC(=O)[C@H](CC(N)=O)NC(=O)[C@H](CC(C)C)NC(=O)[C@H](Cc1ccccc1)NC(=O)[C@H](CCCCN)NC(=O)[C@@H](NC(=O)[C@H](CCCNC(=N)N)NC(=O)[C@H](CCC(N)=O)NC(=O)[C@H](CCCCN)NC(=O)[C@@H](N)CCC(=O)O)[C@@H](C)O)[C@@H](C)O)C(C)C)C(=O)N1CCC[C@H]1C(=O)N[C@@H](CC(=O)O)C(=O)O [Peptide 1601.19]
value-observed: 4.5 µM
